Molecular target: human EP2 (PTGER2) (Homo sapiens, UniProt P43116)
Construct: Cayman Chemical (Human EP2 Reporter Assay Kit)
Sequence (P43116 whole entry): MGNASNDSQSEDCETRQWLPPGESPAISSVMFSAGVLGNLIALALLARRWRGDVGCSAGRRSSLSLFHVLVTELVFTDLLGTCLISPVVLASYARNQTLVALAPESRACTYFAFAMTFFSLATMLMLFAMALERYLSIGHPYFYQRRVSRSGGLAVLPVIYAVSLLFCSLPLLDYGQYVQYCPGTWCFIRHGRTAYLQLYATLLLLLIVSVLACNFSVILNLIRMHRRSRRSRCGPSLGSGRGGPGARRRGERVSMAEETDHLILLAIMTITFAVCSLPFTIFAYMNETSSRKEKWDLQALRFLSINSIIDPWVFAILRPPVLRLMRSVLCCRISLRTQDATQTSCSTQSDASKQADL
Experiment: EP2 antagonist assay (HEK-293 CNG membrane potential cAMP assay / 293T SEAP reporter assay, PGE2-stimulated)
Assay type: cell-based
Conditions: EP2 antagonist activity; concentration for 50% inhibition of signal compared to DMSO
pIC50: −log10 of the molar value.
# pIC50 per entry

| compound | subject of test | data value |
| --- | --- | --- |
| O=C(O)c1ccc(CNC(=O)c2ccc(-c3ccccc3)c3ccn(Cc4ccc(C(F)(F)F)cc4)c23)cc1 [Example 26] | human EP2 (PTGER2) (Homo sapiens, UniProt P43116) | 6.00 to 7.00 |
| C[C@H](NC(=O)c1cc(-c2cccnc2)cc2ccn(Cc3cccc(Cl)c3)c12)c1ccc(C(=O)O)cc1 [Example 109] | human EP2 (PTGER2) (Homo sapiens, UniProt P43116) | > 7.00 |
| N#Cc1cccc(-c2cc(C(=O)NC3(c4ccc(C(=O)O)cc4)CC3)c3c(ccn3Cc3cccc(Cl)c3)c2)c1 [Example 206] | human EP2 (PTGER2) (Homo sapiens, UniProt P43116) | > 7.00 |

Then there is this compound:
Input O=C(O)c1ccc(C2(NC(=O)c3cc(-c4ccccc4)cc4cnn(Cc5cccc(C(F)(F)F)c5)c34)CC2)cc1 [Example 140] . Output pIC50: 6.00 to 7.00

----------
Entries annotated with measured IC50
Target: human EP2 (PTGER2) (Homo sapiens, UniProt P43116)
Construct: Cayman Chemical (Human EP2 Reporter Assay Kit)
Assay: EP2 antagonist assay (HEK-293 CNG membrane potential cAMP assay / 293T SEAP reporter assay, PGE2-stimulated)
Settings: EP2 antagonist activity; concentration for 50% inhibition of signal compared to DMSO

Take a look at these entries with their results.
| molecule | IC50 |
| --- | --- |
| CC(NC(=O)c1cc(-c2ccccc2)cc2cnn(Cc3cccc(C(F)(F)F)c3)c12)[C@H]1CC[C@H](C(=O)O)CC1 (mixture of isomers) [Example 222] | < 100 nM |
| O=C(O)c1ccc(CNC(=O)c2cc(-c3cc(F)cc(F)c3)cc3ccn(Cc4ccc5ccccc5c4)c23)cc1 [Example 161] | < 100 nM |
| O=C(O)c1ccc(CNC(=O)c2cc(-c3ccccc3)cc3cnn(Cc4ccc5ccccc5c4)c23)cc1 [Example 165] | < 100 nM |

Let us move to another entry and its IC50.
N#Cc1ccc(Nc2ccc(C(=O)NC3(c4ccc(C(=O)O)cc4)CC3)c3c2ccn3Cc2ccc(C(F)(F)F)cc2)cc1 [Example 62] tested on human EP2 (PTGER2) (Homo sapiens, UniProt P43116) gave IC50: ≥ 1000 nM

----------
Biological target: human EP2 (PTGER2) (Homo sapiens, UniProt P43116)
Construct: Cayman Chemical (Human EP2 Reporter Assay Kit)
Test: EP2 antagonist assay (HEK-293 CNG membrane potential cAMP assay / 293T SEAP reporter assay, PGE2-stimulated)
Details: EP2 antagonist activity; concentration for 50% inhibition of signal compared to DMSO
pIC50: −log10 of the molar value.
property name: pIC50

Example entries begin here.
| molecule | data value |
| --- | --- |
| O=C(NC1CC2(C1)CC(C(=O)O)C2)c1cc(Br)cc2[nH]cc(Sc3ccc(C(F)(F)F)cc3)c12 (racemic) [Example 112] | 6.00 to 7.00 |
| C[C@H](NC(=O)c1cc(-c2cccc(C#N)c2)cc2ccn(Cc3cccc(C(F)(F)F)c3)c12)c1ccc(C(=O)O)cc1 [Example 127] | > 7.00 |
| O=C(O)c1ccc(CNC(=O)c2cc(-c3cc(F)cc(F)c3)cc3ccn(Cc4ccc(C(F)(F)F)cc4)c23)cc1 [Example 9] | > 7.00 |
| O=C(O)c1ccc(CNC(=O)c2ccc(Nc3ccccc3)c3ccn(Cc4cccc(Cl)c4)c23)cc1 [Example 103] | 6.00 to 7.00 |
| O=C(O)c1ccc(CNC(=O)c2cc(-c3cc(F)cc(F)c3)cc3cnn(Cc4ccc(-c5ccc(F)cc5)cc4)c23)cc1 [Example 186] | > 7.00 |
| O=C(O)c1ccc(CNC(=O)c2cc(-c3ccc(F)cc3)cc3ccn(Cc4cccc(C(F)(F)F)c4)c23)cc1 [Example 124] | > 7.00 |

Next:
The recorded pIC50 for C[C@H](NC(=O)c1cc(-c2ccccc2)cc2ccn(Cc3cccc(Cl)c3)c12)c1ccc(C(=O)O)cc1 [Example 110] is > 7.00

----------
Consider the following compounds and their measured pIC50 readings.
Molecular target: human EP2 (PTGER2) (Homo sapiens, UniProt P43116)
Construct: Cayman Chemical (Human EP2 Reporter Assay Kit)
Experiment: EP2 antagonist assay (HEK-293 CNG membrane potential cAMP assay / 293T SEAP reporter assay, PGE2-stimulated)
Conditions: EP2 antagonist activity; concentration for 50% inhibition of signal compared to DMSO
pIC50: −log10 of the molar value.

A selection of reference data follows.
| smiles notation | property name | data value |
| --- | --- | --- |
| O=C(O)c1ccc(CNC(=O)c2ccc(Nc3ccc(F)c(Cl)c3)c3ccn(Cc4ccc(C(F)(F)F)cc4)c23)cc1 | pIC50 | > 7.00 |
| O=C(O)c1ccc(CNC(=O)c2cc(-c3ccccc3)cc3cnn(Cc4ccc(-c5ccc(F)cc5)cc4)c23)cc1 | pIC50 | > 7.00 |
| C[C@@H](NC(=O)c1cc(-c2cc(F)cc(F)c2)cc2ccn(Cc3ccc(C(F)(F)F)cc3)c12)c1ccc(C(=O)O)cc1 | pIC50 | ≤ 6.00 |
| O=C(O)c1ccc(CNC(=O)c2cc(-c3ccc(F)cc3)cc3ccn(Cc4ccc(C(F)(F)F)cc4)c23)cc1 | pIC50 | > 7.00 |
| O=C(O)c1ccc(CNC(=O)c2cc(-c3cc(F)cc(F)c3)cc3ccn(Cc4cccc(C(F)(F)F)c4)c23)cc1 | pIC50 | > 7.00 |
| N#Cc1cccc(-c2cc(C(=O)NCc3ccc(C(=O)O)cc3)c3c(Sc4ccc(C(F)(F)F)cc4)c[nH]c3c2)c1 | pIC50 | > 7.00 |
| C[C@H](NC(=O)c1cc(-c2cc(F)cc(F)c2)cc2cnn(Cc3ccc(C(F)(F)F)cc3)c12)c1ccc(C(=O)O)cc1 | pIC50 | > 7.00 |
| C[C@H](NC(=O)c1cc(-c2ccc(F)c(F)c2)cc2cnn(Cc3ccc(-c4ccccc4)cc3)c12)c1ccc(C(=O)O)cc1 | pIC50 | > 7.00 |

# compound "C[C@H](NC(=O)c1cc(-c2cc(F)cc(F)c2)cc2cnn(Cc3cccc(C(F)(F)F)c3)c12)c1ccc(C(=O)O)cc1" ; its pIC50 = > 7.00

For "C[C@H](NC(=O)c1cc(-c2ccccc2)cc2ccn(Cc3cccc(C(F)(F)F)c3)c12)c1ccc(C(=O)O)cc1" the compound record lists pIC50 as > 7.00

Lab note: measured pIC50 of "C[C@H](NC(=O)c1cc(-c2cc(F)cc(F)c2)cc2ccn(Cc3ccc(-c4ccccc4)cc3)c12)c1ccc(C(=O)O)cc1" was > 7.00

The compound "CN1CCN(c2ccc(C(=O)NCc3ccc(C(=O)O)cc3)c3c2ccn3Cc2ccc(C(F)(F)F)cc2)CC1" showed pIC50 equal to ≤ 6.00

Noted for "O=C(O)c1ccc(CNC(=O)c2ccc(Nc3ccc(Cl)cc3)c3ccn(Cc4ccc(C(F)(F)F)cc4)c23)cc1" : its pIC50 reads 6.00 to 7.00

// pIC50 value for "C[C@H](NC(=O)c1cc(-c2ccccc2)cc2cnn([C@H](C)c3ccc4ccccc4c3)c12)c1ccc(C(=O)O)cc1" : > 7.00

----------
Target: human EP2 (PTGER2) (Homo sapiens)
Construct: Cayman Chemical (Human EP2 Reporter Assay Kit)
Experiment: EP2 antagonist assay (HEK-293 CNG membrane potential cAMP assay / 293T SEAP reporter assay, PGE2-stimulated)
Conditions: EP2 antagonist activity; concentration for 50% inhibition of signal compared to DMSO
pIC50: −log10 of the molar value.
property name: pIC50

# pIC50 measured on human EP2 (PTGER2) (Homo sapiens) for item C[C@H](NC(=O)c1cc(-c2cc(F)cc(F)c2)cc2cnn(Cc3ccc(-c4ccccc4)cc3)c12)c1ccc(C(=O)O)cc1 [Example 200] = > 7.00

Given the molecule C[C@@H](NC(=O)c1cc(-c2cccc(C(F)(F)F)c2)cc2ccn(Cc3ccc(C(F)(F)F)cc3)c12)c1ccc(C(=O)O)cc1 [Example 15] and test system human EP2 (PTGER2) (Homo sapiens), the measured pIC50 is ≤ 6.00

Result for O=C(O)c1ccc(CNC(=O)c2cc(-c3ccccc3)cc3cnn(Cc4ccc(-c5ccccc5)cc4)c23)cc1 [Example 190] , tested on human EP2 (PTGER2) (Homo sapiens), pIC50: > 7.00

Entry O=C(O)c1ccc(CNC(=O)c2ccc(Nc3ccc(Cl)c(F)c3)c3ccn(Cc4ccc(C(F)(F)F)cc4)c23)cc1 [Example 71] : pIC50 on human EP2 (PTGER2) (Homo sapiens) = 6.00 to 7.00

Summary: C[C@@H](NC(=O)c1cc(-c2cc(F)cc(C(F)(F)F)c2)cc2ccn(Cc3ccc(C(F)(F)F)cc3)c12)c1ccc(C(=O)O)cc1 [Example 16] , human EP2 (PTGER2) (Homo sapiens), pIC50 = ≤ 6.00

Short answer on human EP2 (PTGER2) (Homo sapiens) for C[C@@H](NC(=O)c1ccc(-c2cccc(C#N)c2)c2ccn(Cc3ccc(C(F)(F)F)cc3)c12)c1ccc(C(=O)O)cc1 [Example 30] , pIC50: ≤ 6.00

Noted pIC50 for N#Cc1cccc(-c2cc(C(=O)NC3(c4ccc(C(=O)O)cc4)CC3)c3c(ccn3Cc3cccc(C(F)(F)F)c3)c2)c1 [Example 133] , tested on human EP2 (PTGER2) (Homo sapiens): 6.00 to 7.00

Log: human EP2 (PTGER2) (Homo sapiens), molecule O=C(O)c1ccc(CNC(=O)c2ccc(Nc3cc(F)cc(F)c3)c3ccn(Cc4ccc(C(F)(F)F)cc4)c23)cc1 [Example 69] , pIC50 = > 7.00

Noted pIC50 for O=C(O)c1ccc(CNC(=O)c2cc(-c3ccc(F)cc3)cc3cnn(Cc4ccc(-c5ccccc5)cc4)c23)cc1 [Example 191] , tested on human EP2 (PTGER2) (Homo sapiens): > 7.00
